# target_entity: T1, Peptide A (human PAR-2), unbiotinylated (Human)
# T1 construct: also called Peptide A No Biotin
# T1 peptide: GTNRSSKGRSLIGKVDGT
# protocol: SPR, antibody captured
metric_name: pKd
Just so you know, pKd here is -log10 of the concentration in molar units; reply with that number alone.

binder	pKd
H4H583P (antibody, human IgG4, V domains shown, also called H1H583P variable regions) VH: QVQLVESGGGVVQPGMSLRLSCTASGFTFRRYGMHWVRQAPGKGLEWVAVIWYDGSNKYYADSVKGRFTITRDNSKNTLYLQMNSLRAEDTAIYFCASEITIGDWFDPRGQGTLVTVSS VL: AIQMTQSPSSLSASVGDRVTITCRASQGIRNDLGWFQQKPGKVPKLLIYAASTLHSGVPSRFSGSGFGTDFTLTISSLQPEDFATYYCLQDFNYPLTFGGGTKVEIK	7.43
H2M589N (antibody, V domains shown, chimeric: human variable, mouse constant domains) VH: EVQLLESGGGLVQPGGSLRLSCATSGFTFSRYTMTWVRQAPGKGLFWVSGIGGSGGRAYYADSVKGRFTLSRDNSKNTLYLQMNSLRAEDTAVYYCAKEGDSGYDLDYWGRGTLVTVSS VL: DIQMTQYPSSLSASVGDRVTITCRARQGISNYLAWLQQKPGKAPKSLIYAASSLQRGVPSKFSGSGSGTDFTLTISSLQPEDSATYYCQQYKISPLTFGGGTKVEIK	8.43
H2M591N (antibody, V domains shown, chimeric: human variable, mouse constant domains) VH: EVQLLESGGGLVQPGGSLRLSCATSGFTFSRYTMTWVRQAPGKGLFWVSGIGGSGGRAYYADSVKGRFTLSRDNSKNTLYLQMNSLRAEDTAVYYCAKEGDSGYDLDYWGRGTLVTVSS VL: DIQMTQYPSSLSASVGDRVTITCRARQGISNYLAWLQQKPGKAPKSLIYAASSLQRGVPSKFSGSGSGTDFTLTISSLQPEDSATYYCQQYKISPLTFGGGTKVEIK	8.37
H4H584P (antibody, human IgG4, V domains shown, also called H1H584P variable regions) VH: QVQLVESGGGVVQPGRSLRLSCVASGFTFSRYGMHWVRQAPGKGLEWVVVISYDGINKYYADSVKGRFTISRDNSKNTVYLQMNSLRAEDTAVYYCAKGDFWSGYFDYWGQGTLVTVSS VL: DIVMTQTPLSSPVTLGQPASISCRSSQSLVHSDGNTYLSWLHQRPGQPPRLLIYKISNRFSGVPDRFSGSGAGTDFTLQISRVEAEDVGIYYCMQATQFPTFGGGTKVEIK	7.66

We next turn to a different binder, shown below.
The reported pKd of the binder H2M588N (antibody, V domains shown, chimeric: human variable, mouse constant domains) VH: EVQLLESGGGLVQPGGSLRLSCAASGFTFSSYAMTWVRQAPGKGLYWVSAISGGRGSAYYADSVKGRFTISRDNSKNTLYLQMNSLRAEDTAVYYCAKEGDSGYDLAYWGRGTLVTVSS VL: DIQMTQSPSSLSASVGDRVTITCRARQGISNNLAWLQQKPGKAPKSLIYAASSLQSGIPSKFSGSGSGTYFTLTISSLQPEDFATYYCQQYKSSPLTFGGGTKVEIK was 8.35
